These entries and their values trace back to ChEMBL document CHEMBL3217730.

# TESTED TARGET: Neuraminidase (Influenza A virus, UniProt B4URF0)
# Sequence (B4URF0 whole entry): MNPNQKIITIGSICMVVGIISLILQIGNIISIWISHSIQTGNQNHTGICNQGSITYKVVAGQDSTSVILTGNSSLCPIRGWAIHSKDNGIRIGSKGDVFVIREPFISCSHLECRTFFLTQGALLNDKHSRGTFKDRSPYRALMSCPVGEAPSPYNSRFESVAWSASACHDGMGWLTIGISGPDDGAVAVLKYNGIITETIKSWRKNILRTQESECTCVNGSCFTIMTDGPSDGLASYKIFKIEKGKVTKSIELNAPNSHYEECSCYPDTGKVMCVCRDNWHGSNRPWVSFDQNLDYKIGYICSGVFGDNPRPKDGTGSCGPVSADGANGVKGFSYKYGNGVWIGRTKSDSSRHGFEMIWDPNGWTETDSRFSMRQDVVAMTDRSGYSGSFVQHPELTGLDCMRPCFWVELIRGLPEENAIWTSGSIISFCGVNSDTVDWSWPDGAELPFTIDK
# EXPERIMENT NOTES: Inhibition of Influenza virus neuraminidase A
# Design: species or system unidentified influenza virus
# PROTOCOL CONDITIONS: read-out: IC50
pIC50: −log10 of the molar value.
Lab note: anything with pIC50 at or over 5 counts as 1 (yes); the rest go in 0 (no).

COMPOUND | CLASSIFICATION
C=CC[C@H](CC)O[C@@H]1C=C(C(=O)O)C[C@H](N)[C@H]1NC(C)=O | 1 (yes)
CC(C)N(C(=O)N1C[C@@H](N)[C@@H](C(=O)O)C1)C(C)C | 1 (yes)
CCCN(CCC)C(=O)[C@@H](NC(C)=O)[C@H]1CC(C(=O)O)C[C@@H]1NC(=N)N (some centres undefined) | 1 (yes)
CO[C@@H]1C=C(C(=O)O)C[C@H](N)[C@H]1NC(C)=O | 0 (no)
CC(=O)N[C@@H]1[C@@H](N)CC(C(=O)O)=C[C@H]1OC1CCCCC1 | 0 (no)
CCCCCCCCCCO[C@@H]1C=C(C(=O)O)C[C@H](N)[C@H]1NC(C)=O | 0 (no)
CCN(C(=O)N1C[C@@H](N)[C@@H](C(=O)O)C1)C(C)C | 1 (yes)
C=CC(=O)NC[C@H]1[C@@H](C(=O)O)[C@@H](N)CN1C(=O)N(CC)C(C)C | 0 (no)
CC(=O)N[C@@H]1[C@@H](N)CC(C(=O)O)=C[C@H]1OC(C)C | 1 (yes)
CCN(C(=O)N1C[C@H](N)[C@H](C(=O)O)[C@@H]1CNS(C)(=O)=O)C(C)C | 0 (no)
CC[C@@H](CCc1ccccc1)O[C@@H]1C=C(C(=O)O)C[C@H](N)[C@H]1NC(C)=O | 1 (yes)
CCCO[C@@H]1C=C(C(=O)O)C[C@H](N=C(N)N)[C@H]1NC(C)=O | 1 (yes)
CC(C)N(CCCCC(=O)O)C(=O)N1C[C@@H](N)[C@@H](C(=O)O)C1 | 1 (yes)
CCN(C(=O)N1C[C@H](N)[C@H](C(=O)O)[C@@H]1CNC(=O)C(F)(F)F)C(C)C | 1 (yes)
CC(=O)N[C@@H]1[C@@H](N)[C@H](C)C(C(=O)O)=C[C@H]1OC(C)C | 1 (yes)
CCCCCCO[C@@H]1C=C(C(=O)O)C[C@H](N)[C@H]1NC(C)=O | 0 (no)
CCCC[C@@H](NC(C)=O)[C@@H]1CC(C(=O)O)C[C@@H]1NC(=N)N (some centres undefined) | 1 (yes)
CCCCCO[C@@H]1C=C(C(=O)O)C[C@H](N)[C@H]1NC(C)=O | 0 (no)
CC(=O)N[C@@H]1[C@@H](N)CC(C(=O)O)=C[C@H]1Oc1ccccc1 | 0 (no)
CC[C@H](C)O[C@@H]1C=C(C(=O)O)C[C@H](NC(=N)N)[C@H]1NC(C)=O | 1 (yes)
CC(C)N(CCO)C(=O)N1C[C@@H](N)[C@@H](C(=O)O)C1 | 0 (no)
CCCN(CCC)C(=O)[C@@H](NC(C)=O)[C@H]1C[C@](O)(C(=O)O)C[C@@H]1NC(=N)N | 1 (yes)
CCC(=O)NC[C@H]1[C@@H](C(=O)O)[C@@H](N)CN1C(=O)N(CC)C(C)C | 0 (no)
CCCCCCCCO[C@@H]1C=C(C(=O)O)C[C@H](N)[C@H]1NC(C)=O | 0 (no)
CC(=O)N[C@@H]1[C@@H](N)CC(C(=O)O)=C[C@H]1OCC(C)C | 0 (no)
CCCCCCCCCO[C@@H]1C=C(C(=O)O)C[C@H](N)[C@H]1NC(C)=O | 0 (no)
CC(=O)N[C@H]1[C@H](O)C=C(C(=O)O)C[C@@H]1N=C(N)N | 0 (no)
CC[C@@H](Cc1ccccc1)O[C@@H]1C=C(C(=O)O)C[C@H](N)[C@H]1NC(C)=O | 0 (no)
CC(=O)N[C@@H]1[C@@H](N)CC(C(=O)O)=C[C@H]1OCCCc1ccc(-c2ccccc2)cc1 | 0 (no)
CC(=O)N[C@H]1[C@H](OC(C)C)C(C)=C(C(=O)O)C[C@@H]1N | 1 (yes)
CCCO[C@@H]1C=C(C(=O)O)C[C@H](N)[C@H]1NC(C)=O | 0 (no)
CC(C)N(CCCC(=O)O)C(=O)N1C[C@@H](N)[C@@H](C(=O)O)C1 | 0 (no)
CC(=O)N[C@H]1[C@H](OC(C)C)C(F)=C(C(=O)O)C[C@@H]1N | 1 (yes)
CCC(CC)C(=O)N1C[C@@H](N)[C@@H](C(=O)O)C1 | 0 (no)
CC[C@@H](CCC1CCCCC1)O[C@@H]1C=C(C(=O)O)C[C@H](N)[C@H]1NC(C)=O | 1 (yes)

====

# TESTED TARGET: Neuraminidase (Influenza A virus)
# EXPERIMENT NOTES: Inhibition of Influenza virus neuraminidase A
# Set-up: species or system unidentified influenza virus
# PROTOCOL CONDITIONS: read-out: IC50
pIC50: −log10 of the molar value.

MOLECULE | pIC50
CCN(C(=O)N1C[C@H](C(=O)O)[C@H](NC(=N)N)C1)C(C)C | 4.89
CC[C@H](C)O[C@@H]1C=C(C(=O)O)C[C@H](N)[C@H]1NC(C)=O | 5.05
CCN(C(=O)N1C[C@H](N)[C@H](C(=O)O)[C@@H]1CNC(C)=O)C(C)C | 5.12
CCC(C)O[C@@H]1C=C(C(=O)O)C[C@H](N)[C@H]1NC(C)=O (some centres undefined) | 5.00
